system: hEP4 (Homo sapiens)
Sequence (P35408 whole entry): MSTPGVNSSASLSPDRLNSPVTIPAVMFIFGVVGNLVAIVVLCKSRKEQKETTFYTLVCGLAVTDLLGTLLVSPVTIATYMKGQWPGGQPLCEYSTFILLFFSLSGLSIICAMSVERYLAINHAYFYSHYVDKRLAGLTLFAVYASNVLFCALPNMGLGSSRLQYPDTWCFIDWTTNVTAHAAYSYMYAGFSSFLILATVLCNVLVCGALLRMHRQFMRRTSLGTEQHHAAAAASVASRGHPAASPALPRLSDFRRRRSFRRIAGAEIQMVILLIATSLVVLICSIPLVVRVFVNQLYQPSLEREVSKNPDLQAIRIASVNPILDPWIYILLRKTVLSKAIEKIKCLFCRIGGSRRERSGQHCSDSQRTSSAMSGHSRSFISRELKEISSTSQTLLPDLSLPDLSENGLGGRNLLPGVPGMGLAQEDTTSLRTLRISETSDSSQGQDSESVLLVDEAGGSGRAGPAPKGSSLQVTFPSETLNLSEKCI
experimental details: hEP4 flipr functional assay
Format: cell-based
reported conditions: the 2nd table; read-out: hEP4 flipr EC50
From the text: U.S. patent application Ser. No. 11/553,143, filed on Oct. 26, 2006, describes the methods used to obtain the in vitro data in the table below.
pEC50: −log10 of the molar value.
readout kind: pEC50

Recorded pEC50, per entry:
compound	pEC50
N#C[C@@H]1C[C@@H](O)[C@H](COc2cc(Cl)cc(Cl)c2)[C@H]1CCCc1ccc(C(=O)O)s1 [drawing 40]	< 5.00
COCc1cc(Cl)cc(OC[C@@H]2[C@@H](C/C=C\CCCC(=O)O)[C@H](Cl)C[C@H]2O)c1	5.32
O=C(O)c1ccc(CCC[C@@H]2[C@@H](COc3cc(Cl)cc(CO)c3)[C@H](O)C[C@H]2Cl)s1 [drawing 36]	< 5.00

Alright, here's another compound for you.
Please report the recorded pEC50 for O=C(O)c1ccc(CCC[C@@H]2[C@@H](COc3cc(Cl)cc(CO)c3)CC[C@H]2Cl)s1 . < 5.00

----------
system: hTP (Homo sapiens, UniProt P21731)
Sequence (P21731 1-343): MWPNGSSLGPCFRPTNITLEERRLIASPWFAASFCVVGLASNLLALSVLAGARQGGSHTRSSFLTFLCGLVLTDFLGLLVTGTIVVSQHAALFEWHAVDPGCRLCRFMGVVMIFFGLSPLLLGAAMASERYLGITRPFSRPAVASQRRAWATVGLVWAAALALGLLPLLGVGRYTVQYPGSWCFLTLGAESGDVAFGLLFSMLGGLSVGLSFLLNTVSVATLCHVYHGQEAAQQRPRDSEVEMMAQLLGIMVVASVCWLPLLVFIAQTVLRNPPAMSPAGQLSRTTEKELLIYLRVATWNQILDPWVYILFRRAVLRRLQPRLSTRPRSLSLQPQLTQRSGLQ
experimental details: Other receptors: hTP
reported conditions: the 2nd table
readout kind: EC50

O=C(O)CCC/C=C\C[C@@H]1[C@@H](COc2cc(Cl)cc(CCO)c2)[C@H](O)C[C@H]1Cl > 10 µM

Alright, here's another compound for you.
Please report the recorded EC50 for COCc1cc(Cl)cc(OC[C@@H]2[C@@H](C/C=C\CCCC(=O)O)[C@H](Cl)C[C@H]2O)c1 . > 10 µM

----------
system: hEP2 (Homo sapiens, UniProt P43116)
Sequence (P43116 whole entry): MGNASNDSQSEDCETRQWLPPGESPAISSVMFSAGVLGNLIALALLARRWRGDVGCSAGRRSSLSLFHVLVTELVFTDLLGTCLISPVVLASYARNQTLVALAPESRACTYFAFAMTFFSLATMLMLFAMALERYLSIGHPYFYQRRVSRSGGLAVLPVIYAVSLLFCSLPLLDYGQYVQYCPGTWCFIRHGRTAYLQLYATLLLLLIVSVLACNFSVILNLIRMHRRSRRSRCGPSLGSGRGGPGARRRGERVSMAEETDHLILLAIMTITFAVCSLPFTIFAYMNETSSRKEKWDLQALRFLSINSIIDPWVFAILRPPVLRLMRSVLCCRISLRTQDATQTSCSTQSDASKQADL
experimental details: hEP2 cAMP functional assay
Assay type: cell-based
reported conditions: the 2nd table; read-out: hEP2 cAMP EC50
pEC50: −log10 of the molar value.
Tag: fulfilled if measured pEC50 is not below 9, not fulfilled if it is.

compound	qualitative label
O=C(O)c1ccc(CCC[C@@H]2[C@@H](COc3cc(Cl)cc(CO)c3)CC[C@H]2Cl)s1	not fulfilled
Cc1cc(C)cc(OC[C@@H]2[C@@H](CCCc3ccc(C(=O)O)s3)[C@H](Cl)C[C@H]2O)c1 [drawing 37]	fulfilled
COCc1cc(Cl)cc(OC[C@@H]2[C@@H](C/C=C\CCCC(=O)O)[C@H](Cl)C[C@H]2O)c1	not fulfilled
O=C(O)CCC/C=C\C[C@@H]1[C@@H](COc2cc(Cl)cc(CCO)c2)[C@H](O)C[C@H]1Cl	not fulfilled

Is pEC50 for CC(=O)OCCc1cc(Cl)cc(OC[C@@H]2[C@@H](C/C=C\CCCC(=O)O)[C@H](Cl)C[C@H]2O)c1 at or above 9? not fulfilled

Is pEC50 for O=C(O)c1ccc(CCC[C@@H]2[C@@H](COc3cc(Cl)cc(CO)c3)[C@H](O)C[C@H]2Cl)s1 [drawing 36] at or above 9? fulfilled

Is pEC50 for O=C(O)c1ccc(CCC[C@@H]2[C@@H](COc3cc(Cl)cc(Cl)c3)[C@H](O)C[C@H]2Cl)s1 [drawing 35] at or above 9? fulfilled

Is pEC50 for O=C(O)c1ccc(CCC[C@H]2C(=O)CC[C@@H]2COc2cc(Cl)cc(CO)c2)s1 at or above 9? not fulfilled

Is pEC50 for N#C[C@@H]1C[C@@H](O)[C@H](COc2cc(Cl)cc(Cl)c2)[C@H]1CCCc1ccc(C(=O)O)s1 [drawing 40] at or above 9? fulfilled
